- System: OVCAR-3 ovarian
- ASSAY_INFO: NCI tumour cell line growth inhibition, 48 h
ENDPOINT_NAME: TGI

Which TGI is reported for this compound? COC(=O)c1cc(C)n2c1CS[C@@H]2c1ccccc1
> 100 µM

Which TGI is reported for this compound? CSC(=NC1CC(n2cc(C)c(=O)[nH]c2=O)OC1CO)NC#N (stereo not drawn)
> 100 µM

Which TGI is reported for this compound? CCOC(=O)C1=C(OS(=O)(=O)C(F)(F)F)CCCC1
> 100 µM

Which TGI is reported for this compound? NC(=O)NC(CC(=O)O)C(=O)O (stereo not drawn)
> 100 µM

Which TGI is reported for this compound? CCOC(=O)c1c[nH]c2c(OCc3ccccc3)c3ccccc3c(O)c2c1=O
51 µM

Which TGI is reported for this compound? CC(=O)OCc1cccc(O)c1C(=O)CCC=C(C)C
> 100 µM

Which TGI is reported for this compound? COc1ccc(OC)c(C2CCCc3c2cnc2nc(N)nc(N)c32)c1 (stereo not drawn)
> 100 µM

Which TGI is reported for this compound? C[C@H](CCC(=O)O[C@@H]1CC[C@@]2(C)C(CC[C@H]3[C@@H]4CC[C@H]([C@H](C)CCc5nc6ccccc6[nH]5)[C@@]4(C)CC[C@@H]32)C1)[C@H]1CC[C@H]2[C@@H]3CCC4C[C@H](O)CC[C@]4(C)[C@H]3CC[C@]12C (stereo partly drawn)
> 100 µM

Which TGI is reported for this compound? CC(=O)c1c2c(cc3c1CC1(Cc4cc5c(cc4C1=O)CCC5)C3)CCC2 (stereo not drawn)
> 100 µM

Which TGI is reported for this compound? O=C(Nc1ccc(Cl)c(Cl)c1)C(=O)C(C1OC(=O)c2ccccc21)[N+](=O)[O-] (stereo not drawn)
> 100 µM

Which TGI is reported for this compound? Cc1cc2cc(Cl)ccc2nc1C(=O)c1ccccc1
> 100 µM

Which TGI is reported for this compound? [N-]=[N+]=Nc1ccccc1-[n+]1noc([O-])c1Br
> 100 µM

Which TGI is reported for this compound? CC(C)(C)c1ccc(-c2nc3ccccc3c(=O)o2)cc1
62.1 µM

Which TGI is reported for this compound? CC(=O)Nc1ccc2c3c(cc(O)c2c1)N(C(=O)CCCC(=O)Nc1ccc2c4c(cc(O)c2c1)N(C(=O)OC(C)(C)C)CC4CCl)CC3CCl (stereo not drawn)
2.89 µM

Which TGI is reported for this compound? Oc1ccc(-c2c3ccccc3c(-c3ccc(OCCBr)cc3)c3ccccc23)cc1
33.7 µM

Which TGI is reported for this compound? C[C@@H]1CCC2[C@@H](C)[C@H](O[C@H]3O[C@@H]4O[C@@]5(C)CCC6[C@H](C)CCC([C@H]3C)[C@]64OO5)O[C@@H]3O[C@@]4(C)CCC1[C@@]23OO4 (stereo partly drawn)
18.3 µM

Which TGI is reported for this compound? O/N=C(\C=N\O)c1ccc2c(c1)Sc1ccccc1O2
48.8 µM

Which TGI is reported for this compound? CN(CCCCCl)P(=O)(OCc1ccc([N+](=O)[O-])o1)C(F)(F)c1ccc(CC(=O)N[C@@H](CC(=O)O)C(=O)N[C@@H](Cc2ccc(C(F)(F)P(=O)(OCc3ccc([N+](=O)[O-])o3)N(C)CCCCCl)cc2)C(N)=O)cc1 (stereo partly drawn)
> 100 µM

Which TGI is reported for this compound? COc1ccc2nc3cccc([N+](=O)[O-])c3c(NCCN(CCO)CCO)c2c1
0.0501 µM

Which TGI is reported for this compound? OCCOCCN1CCN(c2nc(N3CCCC3)c3nc(Cl)c(NCc4ccccc4)nc3n2)CC1
29.2 µM

Which TGI is reported for this compound? COc1cc(C2c3cc4c(cc3[C@H](NC(=O)c3cccs3)C3COC(=O)[C@H]23)OCO4)cc(OC)c1OC (stereo partly drawn)
> 100 µM

Which TGI is reported for this compound? CC(C)(C)[Si](C)(C)OCC1OC(n2cc(F)c(=O)[nH]c2=O)CC1O[Si](C)(C)C(C)(C)C (stereo not drawn)
32.5 µM

Which TGI is reported for this compound? Cc1cccc2nc3n(c12)C(=O)c1ccccc1-3
> 100 µM

Which TGI is reported for this compound? CCCCCCCCCCCCOC1C(CNC(=O)C2OC3OC(C)(C)OC3C2NC(=O)CN2CCN(c3ccccn3)CC2)OC2OC(C)(C)OC21 (stereo not drawn)
3.02 µM

Which TGI is reported for this compound? C=C1C(=O)O[C@H]2[C@H]1CC/C(C=Nc1ccc(C(F)(F)F)cc1N)=C\CC[C@@]1(C)O[C@@H]21
11.3 µM

Which TGI is reported for this compound? OC(c1ccsc1)c1cc2ccccc2s1 (stereo not drawn)
> 10 µM

Which TGI is reported for this compound? CCc1ccc(CCC(=O)Nc2ncc(Cc3cc(Cl)ccc3Cl)s2)o1
4.76 µM

Which TGI is reported for this compound? COC(=O)CSc1ccccc1
> 100 µM

Which TGI is reported for this compound? C=CC1(c2ccc3ccccc3c2)OCC(CC)(CC)CO1
51.5 µM

Which TGI is reported for this compound? COC(=O)[C@@]12CC[C@]1(C(=O)OC)C1C(C)=CC(=O)O[C@@]12C (stereo partly drawn)
> 100 µM

Which TGI is reported for this compound? COc1ccc(S(=O)(=O)N2CCN(C(=O)OCc3ccccc3)CC2C(=O)NO)cc1 (stereo not drawn)
> 25 µM

Which TGI is reported for this compound? O=C(/C=C/C=C/c1ccccc1)c1ccc(Nc2nc(Nc3ccccc3)nc(Nc3ccccc3)n2)cc1
> 100 µM

Which TGI is reported for this compound? O=C1NC2OCC(O)C(O1)C2O (stereo not drawn)
> 100 µM
